Ref: patent US20260224532A1

target entity: purified, full length human ERβ (Homo sapiens, UniProt Q92731)
Construct: purified, full length human ERα and ERβ
Sequence (Q92731 whole entry): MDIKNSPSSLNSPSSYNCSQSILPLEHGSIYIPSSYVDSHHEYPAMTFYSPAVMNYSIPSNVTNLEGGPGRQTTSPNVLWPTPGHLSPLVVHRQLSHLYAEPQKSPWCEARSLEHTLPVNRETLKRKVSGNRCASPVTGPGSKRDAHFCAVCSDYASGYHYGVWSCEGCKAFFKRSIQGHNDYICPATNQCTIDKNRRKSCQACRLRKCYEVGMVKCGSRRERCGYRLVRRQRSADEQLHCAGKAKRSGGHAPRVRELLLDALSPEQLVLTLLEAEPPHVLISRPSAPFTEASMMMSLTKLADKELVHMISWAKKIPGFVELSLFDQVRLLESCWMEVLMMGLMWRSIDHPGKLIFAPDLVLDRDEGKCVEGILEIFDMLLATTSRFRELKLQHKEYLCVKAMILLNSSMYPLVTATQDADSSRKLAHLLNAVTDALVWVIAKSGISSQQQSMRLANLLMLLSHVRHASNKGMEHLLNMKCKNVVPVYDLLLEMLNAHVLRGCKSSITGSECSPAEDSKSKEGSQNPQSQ
measurement description: Relative binding affinity (RBA) radiometric competitive binding assay, ERβ
setup conditions: ratio of RBA ERβ to RBA ERα
Consider the following partition of reported β/α (ERβ/ERα selectivity) into named classes: low-valued: < 20; mid-valued: ≥ 20 and < 50; high-valued: ≥ 50

Oc1ccc(-n2nc3c(F)cc(O)cc3c2Cl)cc1 = mid-valued

Assign a category based on measured β/α (ERβ/ERα selectivity) for `Oc1ccc(-n2nc3c(Cl)cc(O)cc3c2Cl)c(F)c1` and give only the class name. low-valued

Assign a category based on measured β/α (ERβ/ERα selectivity) for `Oc1ccc(-n2cc3cc(O)cc(Cl)c3n2)cc1` and give only the class name. high-valued

Assign a category based on measured β/α (ERβ/ERα selectivity) for `Oc1ccc(-n2nc3c(Br)cc(O)cc3c2I)cc1` and give only the class name. mid-valued

Assign a category based on measured β/α (ERβ/ERα selectivity) for `Oc1cc(Cl)c2nn(-c3ccc(O)c(F)c3)cc2c1` and give only the class name. high-valued

Assign a category based on measured β/α (ERβ/ERα selectivity) for `Oc1ccc(-n2nc3c(Cl)cc(O)cc3c2Cl)cc1` and give only the class name. mid-valued

Assign a category based on measured β/α (ERβ/ERα selectivity) for `Cc1cc(O)ccc1-n1nc2c(O)cc(O)cc2c1Cl` and give only the class name. low-valued

Assign a category based on measured β/α (ERβ/ERα selectivity) for `Cc1cc(O)ccc1-n1nc2cc(F)c(O)cc2c1Cl` and give only the class name. low-valued

Assign a category based on measured β/α (ERβ/ERα selectivity) for `Oc1ccc(-n2cc3cc(O)cc(F)c3n2)cc1` and give only the class name. high-valued

* * *

target entity: purified, full length human ERα (Homo sapiens)
Construct: purified, full length human ERα and ERβ
Sequence (P03372 1-595): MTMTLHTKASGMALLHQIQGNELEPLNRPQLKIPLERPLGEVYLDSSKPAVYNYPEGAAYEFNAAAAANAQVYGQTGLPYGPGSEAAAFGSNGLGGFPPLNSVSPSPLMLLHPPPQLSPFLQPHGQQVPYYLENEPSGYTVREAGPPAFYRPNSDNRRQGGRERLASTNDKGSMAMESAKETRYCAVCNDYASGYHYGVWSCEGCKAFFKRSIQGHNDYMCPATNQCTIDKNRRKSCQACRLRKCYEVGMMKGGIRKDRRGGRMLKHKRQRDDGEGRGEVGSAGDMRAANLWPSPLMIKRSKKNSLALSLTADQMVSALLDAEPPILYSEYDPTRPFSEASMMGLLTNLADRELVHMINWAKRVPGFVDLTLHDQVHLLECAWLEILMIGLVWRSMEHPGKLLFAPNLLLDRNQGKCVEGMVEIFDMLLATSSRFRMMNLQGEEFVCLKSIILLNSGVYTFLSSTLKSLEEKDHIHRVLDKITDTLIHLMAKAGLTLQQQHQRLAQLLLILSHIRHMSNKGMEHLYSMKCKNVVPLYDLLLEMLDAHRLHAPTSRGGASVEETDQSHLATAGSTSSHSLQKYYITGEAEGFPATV
measurement description: Relative binding affinity (RBA) radiometric competitive binding assay, ERα
setup conditions: relative binding affinity, E2 (estradiol) is 100%; tritiated estradiol tracer
RBA ERα under 0.07% gets true, anything at or over 0.07% gets false.

Worked examples follow.
Oc1ccc(-n2cc3cc(O)cc(Cl)c3n2)cc1 [Compound 6] = false
Oc1ccc(-n2nc3c(Br)cc(O)cc3c2Cl)cc1 [Compound 3] = false
Oc1ccc(-n2cc3cc(O)cc(Cl)c3n2)c(F)c1 [Compound 15] = true

Input Cc1cc(O)cc2c(Cl)n(-c3ccc(O)cc3)nc12 [Compound 11] ; condition: RBA ERα strictly below 0.07%. Does it hold? false

Input Cc1cc(O)cc2cn(-c3ccc(O)cc3)nc12 [Compound 10] ; condition: RBA ERα strictly below 0.07%. Does it hold? true
